These measurements were taken from paper PMC8330742.

- Test system: LOX IMVI
- procedureText: NCI-60 SRB screen
- Assay type: cell-based, human
- conditionInfo: Homo sapiens, single dose 10^−5 M, read-out: Growth inhibition (%)
reportedEndpoint: inhibition at 10 µM (%)
One number for each entry, in %.

• N#CC1C(=O)NC(c2ccccc2[N+](=O)[O-])c2sc3c(F)cccc3c21 (stereo not shown) = 8.64
• O=C1NC(c2cccc([N+](=O)[O-])c2)c2sc3c(F)cccc3c2C1Cl (stereo not shown) = 5.22
• O=C1NC(c2cccc([N+](=O)[O-])c2)c2sc3c(F)cccc3c2C1N1CCCCC1 (stereo not shown) = 2.5
• COc1ccc(C=C2Sc3c(F)cccc3C2=O)c(OC)c1 = -0.02
• O=C1NC(c2ccccc2[N+](=O)[O-])c2sc3c(F)cccc3c2C1Cl (stereo not shown) = 8.72

Give inhibition at 10 µM for all compounds that follow.
1. O=C1C(=Cc2ccccc2[N+](=O)[O-])Sc2c(F)cccc21
2. COc1ccc(C2NC(=O)C(C#N)c3c2sc2c(F)cccc32)cc1 (stereo not shown)
3. COc1ccc(C2NC(=O)C(C#N)c3c2sc2c(F)cccc32)c(OC)c1 (stereo not shown)
4. COc1ccc(C2NC(=O)C(Cl)c3c2sc2c(F)cccc32)cc1 (stereo not shown)
5. COc1ccc(C2NC(=O)C(Cl)c3c2sc2c(F)cccc32)c(OC)c1 (stereo not shown)

11.1
54.4
60.3
6.46
4.84

====

- System: MOLT-4
- procedureText: NCI-60 SRB screen;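 note: half-maximal inhibitory concentration read as cell viability unlike GI50 net growth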
- Type: cell-based
- conditionInfo: Homo sapiens; MOLT-4; five dose
reportedEndpoint: pIC50
Answers are plain numbers, as −log10 of the molar value.

Enter reported pIC50 observed with MOLT-4 for N#CC1C(=O)NC(c2ccccc2[N+](=O)[O-])c2sc3c(F)cccc3c21 (stereo not shown) [Compound 5c] 4.51

====

- Tested on: CCRF-CEM
- procedureText: NCI-60 SRB screen
- Assay type: cell-based
- conditionInfo: Homo sapiens, single dose 10^−5 M, read-out: Growth inhibition (%)
reportedEndpoint: inhibition at 10 µM (%)
Give bare numbers, in %.

- O=C1NC(c2cccc([N+](=O)[O-])c2)c2sc3c(F)cccc3c2C1Cl (centres unmarked): 1.99
- COc1ccc(C2NC(=O)C(C#N)c3c2sc2c(F)cccc32)c(OC)c1 (centres unmarked): 28.1
- O=C1C(=Cc2ccccc2[N+](=O)[O-])Sc2c(F)cccc21: 26.3
- N#CC1C(=O)NC(c2ccccc2[N+](=O)[O-])c2sc3c(F)cccc3c21 (centres unmarked): 13.2
- O=[N+]([O-])c1cccc(C2NC(Cl)=C(Cl)c3c2sc2c(F)cccc32)c1 (centres unmarked): 2.12

Give inhibition at 10 µM for all molecules that follow.
1. O=C1NC(c2cccc([N+](=O)[O-])c2)c2sc3c(F)cccc3c2C1N1CCOCC1 (centres unmarked)
2. N#CC1C(=O)NC(c2cccc([N+](=O)[O-])c2)c2sc3c(F)cccc3c21 (centres unmarked)

[-0.89, -0.08]

====

- Tested on: HCT-15
- procedureText: NCI-60 SRB screen;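 note: half-maximal inhibitory concentration read as cell viability unlike GI50 net growth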
- Assay type: cell-based, human
- conditionInfo: Homo sapiens; HCT-15; five dose
reportedEndpoint: pIC50
Numbers only, as −log10 of the molar value.

Can you share its pIC50? I mean this molecule: N#CC1C(=O)NC(c2ccccc2[N+](=O)[O-])c2sc3c(F)cccc3c21 (stereo not shown) 4.78
